ASSAY INFO: Chemical stability of the compound in pH 7.4 PBS buffer assessed as compound remaining measured after 2 hrs by HPLC analysis
Format: physicochemical
CONDITION: read-out: Stabilty
METRIC: remaining at 2 h (%)

COMPOUND	UOM	remaining at 2 h
CC(OC(=O)N1CCN(C(=O)c2nc(Nc3cc(C4CC4)[nH]n3)c3cc(Cl)ccc3n2)C[C@H]1C)OC(=O)C(C)(C)C (stereo partly drawn)	%	90.5
CC(C)OC(=O)N1CCN(C(=O)c2nc(Nc3cc(C4CC4)[nH]n3)c3cc(Cl)ccc3n2)C[C@H]1C	%	99
CC(C)C(=O)OCOC(=O)N1CCN(C(=O)c2nc(Nc3cc(C4CC4)[nH]n3)c3cc(Cl)ccc3n2)C[C@H]1C	%	93.5
COC(=O)N1CCN(C(=O)c2nc(Nc3cc(C4CC4)[nH]n3)c3cc(Cl)ccc3n2)C[C@H]1C	%	100
C[C@@H]1CN(C(=O)c2nc(Nc3cc(C4CC4)[nH]n3)c3cc(Cl)ccc3n2)CCN1C(=O)OCOC(=O)C(C)(C)C	%	97.7
CC(C)COC(=O)N1CCN(C(=O)c2nc(Nc3cc(C4CC4)[nH]n3)c3cc(Cl)ccc3n2)C[C@H]1C	%	99
C[C@@H]1CN(C(=O)c2nc(Nc3cc(C4CC4)[nH]n3)c3cc(Cl)ccc3n2)CCN1C(=O)OC(C)(C)C	%	99.1
CCOC(=O)N1CCN(C(=O)c2nc(Nc3cc(C4CC4)[nH]n3)c3cc(Cl)ccc3n2)C[C@H]1C	%	97.7

---

ASSAY INFO: Stability of the compound in human plasma assessed as compound remaining measured within 120 mins at 37 degC by HPLC analysis
Type: ADME, cell-free
CONDITION: read-out: Stabilty
METRIC: remaining at 2 h (%)

COMPOUND SMILES	UOM	MEASUREMENT
CCCCCOC(=O)N1CCN(C(=O)c2nc(Nc3cc(C4CC4)[nH]n3)c3cc(Cl)ccc3n2)C[C@H]1C	%	74.4
COC(=O)N1CCN(C(=O)c2nc(Nc3cc(C4CC4)[nH]n3)c3cc(Cl)ccc3n2)C[C@H]1C	%	84.6
CC(C)OC(=O)N1CCN(C(=O)c2nc(Nc3cc(C4CC4)[nH]n3)c3cc(Cl)ccc3n2)C[C@H]1C	%	78.5
CCOC(=O)N1CCN(C(=O)c2nc(Nc3cc(C4CC4)[nH]n3)c3cc(Cl)ccc3n2)C[C@H]1C	%	85.3
C[C@@H]1CN(C(=O)c2nc(Nc3cc(C4CC4)[nH]n3)c3cc(Cl)ccc3n2)CCN1C(=O)OC(C)(C)C	%	73.7

---

ASSAY INFO: Prodrug conversion in human plasma assessed as release of active metabolite (R)-(6-chloro-4-(5-cyclopropyl-1H-pyrazol-3-ylamino)quinazolin-2-yl)(3-methylpiperazin-1-yl)methanone hydrochloride measured within 120 mins at 37 degC by HPLC analysis
Assay type: ADME, cell-free
CONDITION: 2 h
METRIC: Drug metabolism (%)

Some compounds with recorded Drug metabolism:
COMPOUND	MEASUREMENT
C[C@@H]1CN(C(=O)c2nc(Nc3cc(C4CC4)[nH]n3)c3cc(Cl)ccc3n2)CCN1C(=O)OC(C)(C)C	20.7
C[C@@H]1CN(C(=O)c2nc(Nc3cc(C4CC4)[nH]n3)c3cc(Cl)ccc3n2)CCN1C(=O)OCC(Cl)(Cl)Cl	16.3

1 = CC(C)COC(=O)N1CCN(C(=O)c2nc(Nc3cc(C4CC4)[nH]n3)c3cc(Cl)ccc3n2)C[C@H]1C
2 = C[C@@H]1CN(C(=O)c2nc(Nc3cc(C4CC4)[nH]n3)c3cc(Cl)ccc3n2)CCN1C(=O)OCOC(=O)C(C)(C)C
3 = CCOC(=O)N1CCN(C(=O)c2nc(Nc3cc(C4CC4)[nH]n3)c3cc(Cl)ccc3n2)C[C@H]1C
4 = CC(OC(=O)N1CCN(C(=O)c2nc(Nc3cc(C4CC4)[nH]n3)c3cc(Cl)ccc3n2)C[C@H]1C)OC(=O)C(C)(C)C (stereo not given in full)
[in] # ascending order, key=Drug metabolism Provide the labels, sequenced as the question asks.
[out] 3, 1, 4, 2
(3: 14.8%, 1: 25.7%, 4: 46.3%, 2: 94%)

P = CC(C)OC(=O)N1CCN(C(=O)c2nc(Nc3cc(C4CC4)[nH]n3)c3cc(Cl)ccc3n2)C[C@H]1C
Q = CC(OC(=O)C(C)C)OC(=O)N1CCN(C(=O)c2nc(Nc3cc(C4CC4)[nH]n3)c3cc(Cl)ccc3n2)C[C@H]1C (stereo not given in full)
[in] Lab note: record which item had the higher Drug metabolism, P or Q . // respond with label for picked entry
[out] Q
(Q: 78.8%, P: 18.7%)

1 = CCCCCOC(=O)N1CCN(C(=O)c2nc(Nc3cc(C4CC4)[nH]n3)c3cc(Cl)ccc3n2)C[C@H]1C
2 = C[C@@H]1CN(C(=O)c2nc(Nc3cc(C4CC4)[nH]n3)c3cc(Cl)ccc3n2)CCN1C(=O)OCc1ccccc1
[in] Select one: 1 or 2 . Criterion: greater recorded Drug metabolism. Which one? Tell me its label.
[out] 1
(1: 21.4%, 2: 13.5%)
